- Protocol: Lipophilicity, log D of the compound
- Assay type: physicochemical
- Conditions: octanol/water
Measured logD, listed per entry.
Enter the number alone.

Given the compound NS(=O)(=O)C1CCN(c2ncc(C(=O)Nc3nc(-c4cccc(C(F)(F)F)c4F)cs3)cc2Cl)CC1 , what is its reported logD?
4.86

Given the compound NC(=O)C1CCN(c2ncc(C(=O)Nc3nc(-c4cccc(C(F)(F)F)c4F)cs3)cc2Cl)CC1 , what is its reported logD?
4.92

Given the compound O=C(Nc1nc(-c2cccc(C(F)(F)F)c2F)cs1)c1cnc(N2CCNC(C(=O)O)C2)c(Cl)c1 (stereo not drawn) , what is its reported logD?
1.88

Given the compound O=C(Nc1nc(-c2cccc(C(F)(F)F)c2F)cs1)c1cnc(N2CCCCC2)c(Cl)c1 , what is its reported logD?
7.1

Given the compound O=C(Nc1nc(-c2cccc(C(F)(F)F)c2F)cs1)c1ccc(N2CCC(C(=O)O)C2)nc1 (stereo not drawn) , what is its reported logD?
1.21

***
Given the compound O=C(Nc1nc(-c2cccc(C(F)(F)F)c2F)cs1)c1ccc(N2CCC(C(=O)O)CC2)nc1 , what is its reported logD?
1.83

Given the compound O=C(Nc1nc(-c2cccc(C(F)(F)F)c2F)cs1)c1cnc(N2CCC(C(=O)O)CC2)c(Cl)c1 , what is its reported logD?
2.94

Given the compound O=C(Nc1nc(-c2cccc(C(F)(F)F)c2F)cs1)c1cnc(N2CCCC(C(=O)O)C2)c(Cl)c1 (stereo not drawn) , what is its reported logD?
2.94

---

- Protocol: Plasma clearance in rat at 5 mg/kg, po
- Assay type: ADME, organism-based
- Parameters: dose 5 mg/kg, route oral
Measured CL/F, listed per entry.
Reply numerically in mL/min/kg, unit not repeated.

Given the compound CC1=NN(c2ccc(C)c(C)c2)C(=O)/C1=N\Nc1cccc(-c2cccc(C(=O)[O-])c2)c1O.[Na+] , what is its reported CL/F?
6.87

***
Given the compound CC1=NN(c2ccc(C)c(C)c2)C(=O)/C1=N\Nc1cccc(-c2cccc(C(=O)O)c2)c1O.NCCO , what is its reported CL/F?
6.34

---

- Protocol: Protein binding in mouse plasma
- Type: ADME, cell-free
- Conditions: read-out: PPB
Property label: fraction unbound

Given the compound O=C(Nc1nc(-c2cccc(C(F)(F)F)c2F)cs1)c1cnc(N2CCC(C(=O)O)CC2)c(Cl)c1 , what is its reported fraction unbound?
< 0.005

---

- Protocol: Protein binding in dog plasma
- Type: ADME, cell-free, Canis lupus familiaris
- Conditions: read-out: PPB
Property label: fraction unbound

Given the molecule O=C(Nc1nc(-c2cccc(C(F)(F)F)c2F)cs1)c1cnc(N2CCC(C(=O)O)CC2)c(Cl)c1 , what is its reported fraction unbound?
< 0.005

---

- Protocol: Plasma clearance in dog at 5 mg/kg, po
- Format: ADME, organism-based, Canis lupus familiaris
- Set-up: dose 5 mg/kg, route oral
Property label: CL/F (mL/min/kg)
Reply numerically in mL/min/kg, unit not repeated.

Given the molecule CC1=NN(c2ccc(C)c(C)c2)C(=O)/C1=N\Nc1cccc(-c2cccc(C(=O)O)c2)c1O.NCCO , what is its reported CL/F?
0.94

---

- Protocol: Bioavailability in rat at 5 mg/kg, po
- Type: ADME, organism-based
- Conditions: in vivo
Measured bioavailability, listed per entry.
Reply numerically in %, unit not repeated.

Given the molecule CC1=NN(c2ccc(C)c(C)c2)C(=O)/C1=N\Nc1cccc(-c2cccc(C(=O)[O-])c2)c1O.[Na+] , what is its reported bioavailability?
66.8

***
Given the molecule CC1=NN(c2ccc(C)c(C)c2)C(=O)/C1=N\Nc1cccc(-c2cccc(C(=O)O)c2)c1O.NCCO , what is its reported bioavailability?
53.4
